Molecular target: β5 subunit of the human constitutive 20S proteasome (Homo sapiens, UniProt P20618+P28074)
Construct: human erythrocyte 20S; purchased R&D Systems, Inc; host or cells: human erythrocytes (native, purified from tissue)
Test: In vitro β5 proteasome inhibitory activity and kinetic constants (Suc-LLVY-AMC, chymotrypsin-like activity)
Assay type: biochemical
Settings: from fit kobs = k2[I]/(Ki + [I])
endpointLabel: k 2 (s⁻¹)

Recorded k 2, per entry:
CCCCCCCCCC(=O)N[C@@H](Cc1ccccc1)C(=O)N[C@H]1C/C=C/CCNC(=O)/C=C/[C@H](C(C)C)NC1=O [analogue 11]	0.000875
CC(C)[C@H](NC(=O)N[C@H](C(=O)N[C@H]1/C=C/CCNC(=O)/C=C/[C@H](C(C)C)NC1=O)C(C)C)C(=O)O [Syringolin A (1), Syringolin A, reference compound]	0.00391
CCCCCCCCCC(=O)N[C@@H](Cc1ccccc1)C(=O)N[C@H]1/C=C/CNC(=O)/C=C/[C@H](C(C)C)NC1=O [analogue 8]	0.00551
CCCCCCCCCC(=O)N[C@@H](Cc1ccccc1)C(=O)N[C@H]1CCCNC(=O)/C=C/[C@H](C(C)C)NC1=O [analogue 9]	0.00365
CC(C)[C@H](NC(=O)N[C@H](C(=O)N[C@H]1C/C=C/CNC(=O)/C=C/[C@H](C(C)C)NC1=O)C(C)C)C(=O)O [Isosyringolin A (3), Isosyringolin A]	0.00339

(1) CCCCCCCCCC(=O)N[C@@H](Cc1ccc(-c2ccccc2)cc1)C(=O)N[C@H]1/C=C/CNC(=O)/C=C/[C@H](C(C)C)NC1=O [analogue 14]
(2) CCCCCCCCCC(=O)N[C@@H](Cc1ccccc1)C(=O)N[C@H]1CC/C=C/CNC(=O)/C=C/[C@H](C(C)C)NC1=O [analogue 10]
(3) CCCCCCCCCC(=O)N[C@@H](Cc1ccccc1)C(=O)N[C@H]1CCCCCNC(=O)/C=C/[C@H](C(C)C)NC1=O [analogue 12]
List the 3 entries from lowest k 2 to highest k 2 value. Write out the labels following the order that was asked for.
2, 3, 1

###

Target: β5 subunit of the human constitutive 20S proteasome (Homo sapiens, UniProt P20618+P28074)
Construct: human erythrocyte 20S; purchased R&D Systems, Inc; host or cells: human erythrocytes (native, purified from tissue)
Test: In vitro β5 proteasome inhibitory activity and kinetic constants (Suc-LLVY-AMC, chymotrypsin-like activity)
Assay type: biochemical
Settings: human erythrocyte 20S proteasome, chymotrypsin-like activity, 37 °C
Description: First, the effect of modifying the macrocycle was investigated for 1–3 by analyzing the inhibitory activity of the β5 subunit of the human constitutive 20S proteasome. […] In vitro proteasome inhibitory activity was measured on 96-well microtiter plates using human erythrocyte 20S proteasome (R&D Systems, Inc.) with the AK-740 Assay Kit for Drug Discovery (Biomol). […] Fluorescence was monitored with an infinite M200 microplate reader (Tecan) equipped with 360 nm excitation and […]
endpointLabel: K′i (apparent β5 subunit inhibitory activity) (nM)

Recorded K′i (apparent β5 subunit inhibitory activity), per entry:
CCCCCCCCCC(=O)N[C@@H](Cc1ccc(-c2ccccc2)cc1)C(=O)N[C@H]1/C=C/CNC(=O)/C=C/[C@H](C(C)C)NC1=O	0.77
CC(C)[C@H](NC(=O)N[C@H](C(=O)N[C@H]1C/C=C/CNC(=O)/C=C/[C@H](C(C)C)NC1=O)C(C)C)C(=O)O	590
CC(C)[C@H](NC(=O)N[C@H](C(=O)N[C@H]1/C=C/CCNC(=O)/C=C/[C@H](C(C)C)NC1=O)C(C)C)C(=O)O [Syringolin A (1), Syringolin A, reference compound]	170

(1) CCCCCCCCCC(=O)N[C@@H](Cc1ccccc1)C(=O)N[C@H]1CCCCCNC(=O)/C=C/[C@H](C(C)C)NC1=O
(2) CCCCCCCCCC(=O)N[C@@H](Cc1ccccc1)C(=O)N[C@H]1CCCNC(=O)/C=C/[C@H](C(C)C)NC1=O
Of 1 and 2 , which one carries the higher reported K′i (apparent β5 subunit inhibitory activity)? Reply briefly: the label of your chosen item.
1
(1: 402 nM, 2: 48.2 nM)

Data credit: paper PMC5642145
